- Target Entity: PIN1-NRF2 interaction (Homo sapiens, UniProt Q13526, M1N)
- Construct: host or cells: E. coli BL21 (DE3)
- Sequence (Q13526 whole entry M1N): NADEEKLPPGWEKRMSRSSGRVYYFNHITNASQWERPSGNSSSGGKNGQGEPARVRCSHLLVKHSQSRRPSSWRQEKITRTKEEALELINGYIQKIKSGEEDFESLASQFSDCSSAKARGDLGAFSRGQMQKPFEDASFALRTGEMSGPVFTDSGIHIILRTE
- Assay Text: FP competition / ligand displacement assay: competitor titrated to fixed GST-PIN1 and fluorescently labelled NRF2 peptide
- Type: binding
- Run Parameters: GST-PIN1 1 µM; labelled NRF2_402-415^pSer408 10 nM; read-out: IC50, inhibition of NRF2_402-415^pSer408 binding to PIN1
# pIC50 values compiled below
Entry type: numeric. Quantity: pIC50, the -log10 of concentration in molar units.

CC(C)(C)c1ccc(S(=O)(=O)/N=C2\C=C(SCC(=O)O)C(=O)c3ccccc32)cc1; 6.52

We next turn to a different compound, shown below.
Task: Find pIC50 (PIN1-NRF2 interaction (Homo sapiens, UniProt Q13526, M1N)) for the entry "O=C1C=CC(=O)c2c(O)cccc21"
Result: 4.70
